Reported PBM binding z-score values are given for each entry in this list.
System: PPARg DBDmut IVT, anti-PPARg (DBD mutation: PPARg1 K132A/R137A, NR concentration 270 nM)
Test Details: PBM binding z-score (relative to random genomic background probes); higher = stronger binding; sequences stand for … in GC…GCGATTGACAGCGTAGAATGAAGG
Just the number, please, no unit attached.

TAGCCTAGGTTATGCGGGCCAGTATAGTGTCGGC: -0.513
TAGCCTAGCTCATTCAGGGGCCAGTATAGAAAGC: -0.592
ATATGTAGGTTACATCGGGGTCATTCAGGCTATG: 3.24
ATGTGTAGGTTAGGGTCATTCAGAAAGTAGGGAA: 1.73
CGAACTAGGTCACCAGGTCAGTGAAGAGGTTGGA: 0.92
ACTATCAGGCCAAGGGTCACTCAAGATTAGTCCG: 0.584

// CCTAGTTGGTCAGGTGGTCACACACCGGATATGA : PBM binding z-score value = -0.318

Reported PBM binding z-score of CATACAGGGTCCGCTAGGCCAGAGTAGGGACGGC : -0.456

What the record says about CGCCCAAGGTCAGCAGGTCAGTGAAAGCGACGTG : PBM binding z-score is -0.776

PBM binding z-score recorded for this sequence, CCTCCAAGGTCATAGGAGGTCAGTGAAGACAGAT , is 0.448

Briefly, PBM binding z-score measured for GCTGCTAGGTCAGGATGGTCAGCTAACGGGTACG : -0.66

Memo: CGAACTAGGTCACCAGGACATTGAAGAGGTTGGA , reported PBM binding z-score: 0.336

Reported PBM binding z-score for ATACGTAGGTTAGGGTCATTCAGAAAGTAGGGAA was 0.669

* * *

Tested on: PPARg:RXRa IVT, anti-PPARg (NR concentration 270 nM, RXRa partner concentration 90 nM)
Test Details: PBM binding z-score (relative to random genomic background probes); higher = stronger binding; sequences stand for … in GC…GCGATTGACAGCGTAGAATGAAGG
# PBM binding z-score listing for each entry below
Give only the figure.

PBM binding z-score for ATCGAATGGTCGAAGGTGAGTATACCCACCCGAA is 0.182

* * *

Test system: RARg homodimer (NR concentration 270 nM)
Test Details: PBM binding z-score (relative to random genomic background probes); higher = stronger binding; sequences stand for … in GC…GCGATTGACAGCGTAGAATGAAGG
Attribute Measured: PBM binding z-score
// return just the number, without any unit appended

Some solved cases for reference:
ATATGTAGGTTCGGGTCATTCAGAAAGTAGGGAA: 2.25
TCATATAGGTGAAAGGTGAAAGTCGGTGTGGTAA: 1.46
TGAATGAGGTGAAAGATCAGGGAACGTGGCGTCG: 0.868
CGAACTAGGTCACCAGGACAGTGAAGAGGTTGGA: 5.42
ACTCGGAGGACAAAGGTGAGAGCTACGCCAGTGA: 1.82
CCTCGGAGGTCAGAAGGTCAGAGCTGTCCGCTTT: 7.12

For record ACTAGTTGGTCAGCTGAGGTAACACACAATTCGG the listed PBM binding z-score is 0.949

// CGAACTAGGTCACCACGACAGTGAAGAGGTTGGA : PBM binding z-score value = 5.39

The sequence TATACAGGGTCTAAGGCCAGAGTACGAATGTCGA showed PBM binding z-score equal to 1.04

* * *

Tested on: LXRa:RXRa (NR concentration 270 nM, RXRa partner concentration 90 nM)
Test Details: PBM binding z-score (relative to random genomic background probes); higher = stronger binding; sequences stand for … in GC…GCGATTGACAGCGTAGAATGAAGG
Attribute Measured: PBM binding z-score
Please state the value as a number alone, without comment.

Worked cases, PBM binding z-score given:
CCTACTGGGCGACGAAAGGTCATTGATTCAGTGA: 3.92
ACTTACGGGTCAACGACGTTATAGCACGCGTATA: 3.91
CGAACTAGGTCACCAGGACAGTAAAGAGGTTGGA: 2.44

The value of PBM binding z-score measured for the sequence ATATGTAGGTTAGGGTGATTCAGAAAGTAGGGAA turned out to be 1.32

Data point: TCTCGGAGGACACGAAAAGTCAGAGCTCGACATC ; PBM binding z-score = 0.0964

get_value(item= GCATATAGGTAATTCAAGGTGAAAGTCCGATTGT , readout=PBM binding z-score) returns 4.97

Entry under test: TCGAGAAGGTTACGGGGGCATTCAGGGATGAAGA . Its PBM binding z-score was 4.21

* * *

Test system: PPARg:RXRa IVT, anti-PPARg (NR concentration 270 nM, RXRa partner concentration 90 nM)
Test Details: PBM binding z-score (relative to random genomic background probes); higher = stronger binding; sequences stand for … in GC…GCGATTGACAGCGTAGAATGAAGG
Attribute Measured: PBM binding z-score
Lab note: jot the number down without any unit.

Reported PBM binding z-score for ACTAGGTGGTCAGCTGAGGTCACACACAATTCGG was 3.02

// PBM binding z-score lookup, sequence = ATATGTAGGTAAGGGTCATTCAGAAAGTAGGGAA , result: 6.35

get_value(item= CCTTCTGGGCCATTCAGAGGTCATTGATCATATG , readout=PBM binding z-score) returns 3.89

Entry under test: TCTAGTTGGTCAAAGGTCTCACACTCGAAATGCG . Its PBM binding z-score was 3.77

Record TCTAGCTGGTCAAAGGTCACACACTCGAAATGCG , field PBM binding z-score: 5.48

Memo: CCGAGTAGGTTACGAGGGGCCATTCAGTGCGAAT , reported PBM binding z-score: 3.51

// PBM binding z-score lookup, sequence = TCGAGTAGGTTAAGGGGGCATTCAGGGATGAAGA , result: 4.69

Reported PBM binding z-score for TCGAGTAGGTTACAGGGGCATTCAGGGATGAAGA was 4.1

Record summary for AGTCAAAGTTCAGGACGAGGTACCGTAAAGCACG : reported PBM binding z-score = 0.999

PBM binding z-score reported for this sequence AGTCAAAGTTCAGGACGAGGTAAAGTAAAGCACG : 1.81

* * *

Tested on: PXR:RXRa (NR concentration 270 nM, RXRa partner concentration 90 nM)
Test Details: PBM binding z-score (relative to random genomic background probes); higher = stronger binding; sequences stand for … in GC…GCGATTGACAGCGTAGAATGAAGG
Attribute Measured: PBM binding z-score

CCCCGGAGGACAGAAGGTCAGAGCTGTCCGCTTT: 1.25
ATATGTAGGTTAGCTGGGGTCATTCCGACTAGGC: 6.18
CTATGTAGGTTAAGGGGGTCATTCCGTTTGAAAG: 5.52
TCTGCTATGTCAACGATGGTCAGCTAATCTGCTA: -0.217
CAAACTAGGTCAAAGGTCAAAGTAGAGCCAACCA: 7.02

The recorded PBM binding z-score for CGAACTAGGTCAAAGGACAGTGAAAGGCGACGTA is 1.21

Record CAAACTAGGTCACCGGAAAGTCAAAGTCCGCATG . Reported PBM binding z-score: 2.14

Sample CGGACTAGGTCACCAGGACAGTGAAGAGGTTGGA ; PBM binding z-score observed: 1.24

Record AGACAAAGTTCAGGACGAGGTAACGTAAAGCACG . Reported PBM binding z-score: 3.02

The reported value for CTAACTAGGTCACCGGAAGGTCAAAGTCCGCATG in terms of PBM binding z-score is 6.02

* * *

# PBM binding z-score annotations
Tested on: LXRa homodimer (NR concentration 270 nM)
Test Details: PBM binding z-score (relative to random genomic background probes); higher = stronger binding; sequences stand for … in GC…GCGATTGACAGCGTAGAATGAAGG
Enter the number alone.

Look over these answered cases.
CCGTGTAGGTTACGAGGGGGCATTCAGTGCGAAT: 2.37
CCGAGTAGGTTAAGAGGGGGCATTCAGTGCGAAT: 1.5
CGAACTAGGACACCAGGACAGTGAAGAGGTTGGA: -0.083

The reported value for AGTCAAATTTCATCTAGGTAACGTAAGATATGCT in terms of PBM binding z-score is 0.168

So, ATATGTAGGTTAGGGTCATTTAGAAAGTAGGGAA ? Its PBM binding z-score was 1.62

For record TCGAGTTGGTTACGGGGGCATTCAGGGATGAAGA the listed PBM binding z-score is 0.889

Query CTCGAAAGGTCGTCCTCAGGTGAGTATACCAAAC yields PBM binding z-score of 0.547

The sequence identified as CGAACTAGGTCAAAGGATAGTGAAAGGCGACGTA registered its PBM binding z-score at -0.4

The reported measurements were obtained from the supplement of paper PMC6555819.
